Values from patent US8722682B2

- system: 5-HT2A receptor (Homo sapiens, UniProt P28223)
- Construct: expressed in transfected cells; host or cells: CHO-K1
- Sequence (P28223 whole entry): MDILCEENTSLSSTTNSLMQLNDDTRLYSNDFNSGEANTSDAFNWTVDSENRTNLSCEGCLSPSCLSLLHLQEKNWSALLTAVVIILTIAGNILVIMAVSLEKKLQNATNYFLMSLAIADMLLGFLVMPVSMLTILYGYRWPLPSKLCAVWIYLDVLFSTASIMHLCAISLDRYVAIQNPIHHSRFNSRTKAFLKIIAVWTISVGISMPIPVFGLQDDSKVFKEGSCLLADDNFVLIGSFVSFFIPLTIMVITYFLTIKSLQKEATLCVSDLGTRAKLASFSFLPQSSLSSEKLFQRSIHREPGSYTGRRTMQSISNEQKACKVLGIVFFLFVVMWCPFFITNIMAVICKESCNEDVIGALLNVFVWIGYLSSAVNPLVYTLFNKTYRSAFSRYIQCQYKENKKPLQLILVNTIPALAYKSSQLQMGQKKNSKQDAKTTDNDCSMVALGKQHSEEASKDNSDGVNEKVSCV
- assay: 5-HT2A receptor binding, [3H]-Ketanserin displacement
- appliedConditions: human recombinant CHO-K1 cells, [3H]-Ketanserin 0.5 nM
reportedProperty: Ki (nM)

* O=c1[nH]c2ccc(OS(=O)(=O)O)cc2n1CCN1CCN(c2cccc(C(F)(F)F)c2)CC1 | 207
